Molecular target: T1, Mouse Semaphorin3A-Sema Domain, TPP-19069 (mouse, UniProt O08665 21-569)
T1 construct: produced inhouse
T1 sequence: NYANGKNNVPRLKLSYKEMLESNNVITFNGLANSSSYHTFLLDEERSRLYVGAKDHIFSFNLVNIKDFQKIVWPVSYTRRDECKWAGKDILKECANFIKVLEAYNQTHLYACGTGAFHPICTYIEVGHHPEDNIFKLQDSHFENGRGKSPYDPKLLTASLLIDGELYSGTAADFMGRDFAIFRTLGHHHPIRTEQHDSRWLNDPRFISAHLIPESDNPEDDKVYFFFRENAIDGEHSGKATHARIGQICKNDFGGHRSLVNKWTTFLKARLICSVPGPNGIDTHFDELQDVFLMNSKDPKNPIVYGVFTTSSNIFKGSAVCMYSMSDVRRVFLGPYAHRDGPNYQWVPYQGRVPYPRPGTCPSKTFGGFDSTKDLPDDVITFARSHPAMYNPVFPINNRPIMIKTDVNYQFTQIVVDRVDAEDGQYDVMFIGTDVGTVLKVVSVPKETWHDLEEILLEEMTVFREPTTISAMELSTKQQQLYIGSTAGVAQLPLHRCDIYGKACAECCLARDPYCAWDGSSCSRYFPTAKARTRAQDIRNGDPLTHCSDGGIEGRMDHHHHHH
Assay: SPR, captured antibody, Sema3A domain analyte
observable: Binding Activity [%] (%)
Note: unit % is implicit; provide only the numeric part.

// fetch Binding Activity [%] given entry TPP-30790 (antibody, human IgG1, kappa, V domains shown, prior art, WO 2020/225400; also called BI clone III; Böhringer (BI) Clone III) VH: EVQLVESGGGLVQLGGSLRLSCAASGFTFSSYYMSWVRQAPGKGLEWVSTIIKSGGYAYYPDSVKDRFTISRDNSKNTLYLQMNSLRAEDTAVYYCVKGGQGAMDYWGQGTTVTVSS VL: EIVLTQSPATLSLSPGERATLSCRASQSIGDYLHWYQQKPGQAPRLLIYYASQSISGIPARFSGSGSGTDFTLTISSLEPEDFAVYYCQQGYSFPYTFGGGTKLEIKR
93

// fetch Binding Activity [%] given entry TPP-15374 (antibody, human IgG1, lambda, V domains shown, human IgG1; also called IgG1, hit from panning; parental mAb) VH: EVQLLESGGGLVQPGGSLRLSCAASGFTFSSYEMNWVRQAPGKGLEWVSGISWNSGSIGYADSVKGRFTISRDNSKNTLYLQMNSLRAEDTAVYYCARSGYSSSWFDPDFDYWGQGTLVTVSS VL: QSVLTQPPSASGTPGQRVTISCTGSSSNIGAGYDVHWYQQLPGTAPKLLIYGNSNRPSGVPDRFSGSKSGTSASLAISGLRSEDEADYYCSSYAGSNPYVVFGGGTKLTVLG
106

// fetch Binding Activity [%] given entry TPP-30788 (antibody, human IgG1, kappa, V domains shown, prior art, WO 2020/225400; also called BI clone I; Böhringer (BI) Clone I) VH: EVQLVESGGGLVQPGGSLRLSCAASGFTFSSYYMSWVRQAPGKGLEWVSTIIKSGGYAYYPDSVKDRFTISRDNSKNTLYLQMSSLRAEDTAVYYCVRGGQGAMDYWGQGTTVTVSS VL: EIVLTQSPATLSLSPGERATLSCRASQSIGDYLHWYQQKPGQAPRLLIKYASQSISGIPARFSGSGSGTDFTLTITSLEPEDFAVYYCQQGYSFPYTFGGGTKLEIKR
108
